Data credit: patent US20080181886A1

Target: human BAFF (UniProt Q9Y275 82-285)
Sequence (Q9Y275 82-285): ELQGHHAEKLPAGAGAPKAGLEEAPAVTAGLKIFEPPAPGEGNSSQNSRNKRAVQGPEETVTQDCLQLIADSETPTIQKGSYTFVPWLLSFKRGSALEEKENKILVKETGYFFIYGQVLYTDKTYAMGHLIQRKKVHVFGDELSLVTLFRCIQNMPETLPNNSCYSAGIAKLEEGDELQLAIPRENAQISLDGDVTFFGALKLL
Assay: competitive SPR
pIC50: −log10 of the molar value.
recorded-metric: pIC50

- TACI_d1d2 (residues 21-116 of the TACI extracellular domain, C-terminal His-tag) (receptor) FPQGLWTGVAMRSCPEEQYWDPLLGTCMSCKTICNHQSQRTCAAFCRSLSCRKEQGKFYDHLLRDCISCASICGQHPKQCAYFCENKLRSPVNLPP: 8.89
- GSPWSLSCRKEQGKFYDHLLRDCISCASICGQHPKQCAYFCENKLR (receptor) [TACI_d2 (second cysteine-rich domain, CRD2, residues 68-109 of human TACI)]: 8.74
